Each recorded value in this set is attributed to patent US7592457B2.

- assayed_system: hD4.2 receptor (Homo sapiens, UniProt P21917, DEL265-296)
- Construct: purchased BioSignal Packard Inc., Montreal, Canada
- Sequence (P21917 with tags, fused parts or gaps DEL265-296): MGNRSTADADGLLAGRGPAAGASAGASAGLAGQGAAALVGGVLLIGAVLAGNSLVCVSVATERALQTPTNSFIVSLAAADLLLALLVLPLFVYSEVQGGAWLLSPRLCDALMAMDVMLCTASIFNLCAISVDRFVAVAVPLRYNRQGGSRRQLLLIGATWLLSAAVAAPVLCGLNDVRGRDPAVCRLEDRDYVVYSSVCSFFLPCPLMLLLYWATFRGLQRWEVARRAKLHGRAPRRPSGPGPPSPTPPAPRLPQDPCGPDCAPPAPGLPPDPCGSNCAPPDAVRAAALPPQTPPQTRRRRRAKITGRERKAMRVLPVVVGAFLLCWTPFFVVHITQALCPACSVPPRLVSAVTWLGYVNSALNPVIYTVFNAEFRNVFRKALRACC
- assay_details: Radioligand binding, dopamine D4 ([3H]YM-09151-2)
- condition_description: read-out: Binding affinity (Inhibition rate % at 10 μM) D4
inhibition at 10 µM values by entry
property_measured: inhibition at 10 µM (%)

[[record]]
compound = "CN1CCN(c2cc(Cl)c3c(c2)NC(=O)C(C)(c2ccc([N+](=O)[O-])cc2)C3=O)CC1 (stereo not drawn)"
property_measured = "inhibition at 10 µM"
test_value = 0

[[record]]
compound = "CC1(c2ccc(N)cc2)C(=O)Nc2cc(Cl)cc(Cl)c2C1=O (stereo not drawn)"
property_measured = "inhibition at 10 µM"
test_value = 4.5

[[record]]
compound = "CC1(c2ccccc2)C(=O)Nc2cc(Br)cc(Br)c2C1=O (stereo not drawn)"
property_measured = "inhibition at 10 µM"
test_value = 0

[[record]]
compound = "COc1cc2c(c(OC)c1)C(=O)C(C)(c1ccccc1)C(=O)N2 (stereo not drawn)"
property_measured = "inhibition at 10 µM"
test_value = 0.8

[[record]]
compound = "CC1(c2ccc(O)c(Br)c2)C(=O)Nc2cc(Cl)cc(Cl)c2C1=O (stereo not drawn)"
property_measured = "inhibition at 10 µM"
test_value = 0

[[record]]
compound = "CC1(c2ccccc2)C(=O)Nc2cc(Cl)cc(Cl)c2C1=O (stereo not drawn)"
property_measured = "inhibition at 10 µM"
test_value = 0

[[record]]
compound = "CN(C)c1cc(Cl)c2c(c1)NC(=O)C(C)(c1ccccc1)C2=O (stereo not drawn)"
property_measured = "inhibition at 10 µM"
test_value = 0.4

[[record]]
compound = "CN1CCN(c2ccc3c(c2)NC(=O)C(C)(c2ccc(N)cc2)C3=O)CC1 (stereo not drawn)"
property_measured = "inhibition at 10 µM"
test_value = 0

[[record]]
compound = "COc1ccc(C2(C)C(=O)Nc3cc(Cl)cc(Cl)c3C2=O)cc1[N+](=O)[O-] (stereo not drawn)"
property_measured = "inhibition at 10 µM"
test_value = 0

[[record]]
compound = "CC1(c2ccc(Cl)cc2)C(=O)Nc2cc(Cl)cc(Cl)c2C1=O (stereo not drawn)"
property_measured = "inhibition at 10 µM"
test_value = 0.5

[[record]]
compound = "CC1(c2ccc(O)c(O)c2)C(=O)Nc2ccccc2C1=O (stereo not drawn)"
property_measured = "inhibition at 10 µM"
test_value = 0

[[record]]
compound = "COc1ccc(NS(=O)(=O)c2sc3ccc(Cl)cc3c2C)cc1N1CCNCC1 [SB-271046, reference compound]"
property_measured = "inhibition at 10 µM"
test_value = 14.2

[[record]]
compound = "COc1ccc(C2(C)C(=O)Nc3ccccc3C2=O)cc1 (stereo not drawn)"
property_measured = "inhibition at 10 µM"
test_value = 0

[[record]]
compound = "CC1(c2ccc(Br)cc2)C(=O)Nc2cc(Cl)cc(Cl)c2C1=O (stereo not drawn)"
property_measured = "inhibition at 10 µM"
test_value = 0

[[record]]
compound = "CC1(c2ccc(N)cc2)C(=O)Nc2cc(Cl)ccc2C1=O (stereo not drawn)"
property_measured = "inhibition at 10 µM"
test_value = 5.8

[[record]]
compound = "CCN(CC)c1ccc(C2(C)C(=O)Nc3cc(Cl)cc(Cl)c3C2=O)cc1 (stereo not drawn)"
property_measured = "inhibition at 10 µM"
test_value = 8.5

[[record]]
compound = "COc1ccc(C2(C)C(=O)Nc3cc(Cl)cc(Cl)c3C2=O)cc1 (stereo not drawn)"
property_measured = "inhibition at 10 µM"
test_value = 0

[[record]]
compound = "CC1(c2ccc(O)cc2)C(=O)Nc2cc(Cl)cc(Cl)c2C1=O (stereo not drawn)"
property_measured = "inhibition at 10 µM"
test_value = 0

[[record]]
compound = "CC1(c2ccc(I)cc2)C(=O)Nc2cc(Cl)cc(Cl)c2C1=O (stereo not drawn)"
property_measured = "inhibition at 10 µM"
test_value = 1.3

[[record]]
compound = "CC1(c2ccc(O)c([N+](=O)[O-])c2)C(=O)Nc2cc(Cl)cc(Cl)c2C1=O (stereo not drawn)"
property_measured = "inhibition at 10 µM"
test_value = 0

[[record]]
compound = "CC1(c2ccc([N+](=O)[O-])cc2)C(=O)Nc2cc(Cl)ccc2C1=O (stereo not drawn)"
property_measured = "inhibition at 10 µM"
test_value = 0

[[record]]
compound = "CNc1ccc(C2(C)C(=O)Nc3cc(Cl)cc(Cl)c3C2=O)cc1 (stereo not drawn)"
property_measured = "inhibition at 10 µM"
test_value = 10.2

[[record]]
compound = "COc1ccc(C2(C)C(=O)Nc3c(Br)cc(Br)cc3C2=O)cc1[N+](=O)[O-] (stereo not drawn)"
property_measured = "inhibition at 10 µM"
test_value = 2.3

[[record]]
compound = "COc1cc(Cl)c2c(c1)NC(=O)C(C)(c1ccccc1)C2=O (stereo not drawn)"
property_measured = "inhibition at 10 µM"
test_value = 0

[[record]]
compound = "COc1cc(C2(C)C(=O)Nc3ccccc3C2=O)ccc1O (stereo not drawn)"
property_measured = "inhibition at 10 µM"
test_value = 0

[[record]]
compound = "CC1(c2ccc([N+](=O)[O-])cc2)C(=O)Nc2cc(Cl)c(Cl)cc2C1=O (stereo not drawn)"
property_measured = "inhibition at 10 µM"
test_value = 0

[[record]]
compound = "COc1cc(Br)c2c(c1)NC(=O)C(C)(c1ccccc1)C2=O (stereo not drawn)"
property_measured = "inhibition at 10 µM"
test_value = 0.8

[[record]]
compound = "CN1CCN(c2cc(Cl)c3c(c2)NC(=O)C(C)(c2ccc(N)cc2)C3=O)CC1 (stereo not drawn)"
property_measured = "inhibition at 10 µM"
test_value = 0

[[record]]
compound = "CC1(c2ccccc2)C(=O)Nc2cc(Cl)c(Cl)cc2C1=O (stereo not drawn)"
property_measured = "inhibition at 10 µM"
test_value = 0

[[record]]
compound = "CCNc1ccc(C2(C)C(=O)Nc3cc(Cl)cc(Cl)c3C2=O)cc1 (stereo not drawn)"
property_measured = "inhibition at 10 µM"
test_value = 0

[[record]]
compound = "COc1ccc(C2(C)C(=O)Nc3cc(OC)cc(Cl)c3C2=O)cc1 (stereo not drawn)"
property_measured = "inhibition at 10 µM"
test_value = 1.7

[[record]]
compound = "COc1cc(Cl)cc2c1C(=O)C(C)(c1ccccc1)C(=O)N2 (stereo not drawn)"
property_measured = "inhibition at 10 µM"
test_value = 1.6

[[record]]
compound = "CC1(c2ccc(Br)cc2Br)C(=O)Nc2cc(Cl)cc(Cl)c2C1=O (stereo not drawn)"
property_measured = "inhibition at 10 µM"
test_value = 1.6

[[record]]
compound = "CN1CCN(c2ccc3c(c2)NC(=O)C(C)(c2ccc([N+](=O)[O-])cc2)C3=O)CC1 (stereo not drawn)"
property_measured = "inhibition at 10 µM"
test_value = 0

[[record]]
compound = "CC1(c2cccc(OCc3ccccc3)c2)C(=O)Nc2cc(Cl)cc(Cl)c2C1=O (stereo not drawn)"
property_measured = "inhibition at 10 µM"
test_value = 0

[[record]]
compound = "CN(C)c1ccc(C2(C)C(=O)Nc3cc(Cl)cc(Cl)c3C2=O)cc1 (stereo not drawn)"
property_measured = "inhibition at 10 µM"
test_value = 0

